Below, each entry is listed alongside its reported log10 CC50.
# assayInfo: Cytotoxicity against human HeLa-RW cells after 3 to 4 days by crystal violet staining-based spectrophotometric method
# Format: cell-based
# settings: hela-rw
Please keep in mind that the values are log10 of CC50 expressed in µM.

Known results for compounds:
CC(C)n1ncc2c(C(=O)Nc3ccccc3F)cc(-c3cccs3)nc21
1.10
CC(C)n1ncc2c(C(=O)Nc3ccc(F)cc3)cc(C3CC3)nc21
1.00
CC(C)n1ccc2c(C(=O)Nc3cccnc3)cc(-c3cccs3)nc21
1.26
CC(C)n1ncc2c(C(=O)Nc3ccccc3S(N)(=O)=O)cc(-c3cccs3)nc21
1.00

*Q* Record request: log10 CC50 value, item CC(C)n1ncc2c(C(=O)Nc3ccccc3F)cc(-c3ccncc3)nc21
*A* 1.57

*Q* Please look up its log10 CC50: CC(C)n1ncc2c(C(=O)Nc3cc(C(N)=O)ccc3F)cc(-c3cccs3)nc21
*A* 1.27

###

# assayInfo: Selectivity index, ratio of CC50 for human HeLa-RW cells to EC50 for Poliovirus 1
# Assay type: toxicity
# settings: read-out: Ratio CC50/EC50
endpoint: selectivity ratio
Please state the value as a number alone, without comment.

Consider the reported selectivity ratio for these compounds:
CC(C)n1ncc2c(C(=O)Nc3cccc(C(N)=O)c3)cc(-c3cccs3)nc21
2.9
CC(C)n1ncc2c(C(=O)Nc3cc(C(N)=O)ccc3F)cc(-c3cccs3)nc21
3.8
CC(C)n1ncc2c(C(=O)Nc3cccnc3)cc(-c3cccs3)nc21
2.5
CC(C)n1ncc2c(C(=O)Nc3cccc(S(N)(=O)=O)c3)cc(-c3cccs3)nc21
10
CC(C)n1ncc2c(C(=O)Nc3cc(S(N)(=O)=O)ccc3F)cc(-c3cccs3)nc21
2.9
CC(C)n1ncc2c(C(=O)Nc3cncnc3)cc(-c3cccs3)nc21
1.8

*Q* I'd like to know its selectivity ratio. The compound in question is CC(C)n1ncc2c(C(=O)Nc3ccccc3F)cc(-c3cccs3)nc21
*A* 1.8

*Q* // returns reported selectivity ratio for input CC(C)n1ncc2c(C(=O)N3CCc4cc(F)ccc43)cc(-c3cccs3)nc21
*A* 1.9

###

# assayInfo: Cytotoxicity against human HeLa-RW cells after 3 to 4 days by crystal violet staining-based spectrophotometric method
# Format: cell-based
# settings: HeLa-RW cells
endpoint: CC50

*Q* Report CC50 for CC(C)n1ncc2c(C(=O)Nc3cccc(S(N)(=O)=O)c3)cc(-c3cccs3)nc21 please.
*A* 50 to 200 µM

###

# assayInfo: Selectivity index, ratio of CC50 for monkey LLC-MK2 cells to EC50 for Enterovirus A71
# Type: toxicity
# settings: read-out: Ratio CC50/EC50
endpoint: selectivity ratio
The answer should be a number; do not append a unit.

CC(C)n1ncc2c(C(=O)Nc3ccccc3S(N)(=O)=O)cc(-c3cccs3)nc21
10
CC(C)n1ncc2c(C(=O)Nc3cccc(S(N)(=O)=O)c3)cc(-c3cccs3)nc21
19.2
CC(C)n1ncc2c(C(=O)Nc3ccc(F)cc3)cc(C3CC3)nc21
3.9
CC(C)n1ncc2c(C(=O)Nc3ccc(S(C)(=O)=O)cc3)cc(-c3cccs3)nc21
100
CC(C)n1ncc2c(NC(=O)c3ccc(F)cc3)cc(-c3cccs3)nc21
12.5

*Q* Any idea what its selectivity ratio is? The molecule is CC(C)n1ncc2c(C(=O)Nc3ncccn3)cc(-c3cccs3)nc21
*A* 150

*Q* Quick one: selectivity ratio for CC(C)n1ncc2c(C(=O)Nc3cc(S(N)(=O)=O)ccc3F)cc(-c3cccs3)nc21 ?
*A* 50

*Q* Entry under review: CC(C)n1ncc2c(C(=O)Nc3ccncc3)cc(-c3cccs3)nc21 . Reported selectivity ratio?
*A* 15.8

*Q* Param item = CC(C)n1ncc2c(C(=O)Nc3ccncn3)cc(-c3cccs3)nc21 ; retrieve measured selectivity ratio.
*A* 100

*Q* Can you share its selectivity ratio? I mean this molecule: CC(C)n1ncc2c(C(=O)Nc3ccccn3)cc(-c3ccccc3)nc21
*A* 17.9

*Q* Would you kindly share the measured selectivity ratio for CC(C)n1ncc2c(C(=O)Nc3cc(C(N)=O)ccc3F)cc(-c3cccs3)nc21 ?
*A* 50

###

# System: Poliovirus 3
# assayInfo: Antiviral activity against Poliovirus 3 infected in human HeLa-RW cells assessed as protection against virus-induced cytopathic effect after 3 to 4 days by crystal violet staining-based spectrophotometric method
# Format: functional, cell-based
# settings: Enterovirus C
pEC50: −log10 of the molar value.
endpoint: pEC50

Solved cases (2 shown):
CC(C)n1ncc2c(C(=O)Nc3ccccn3)cc(-c3ccccc3)nc21
< 4.60
CC(C)n1ncc2c(C(=O)Nc3ccncc3)cc(-c3cccs3)nc21
< 5.00

Continue with the next compound.
*Q* Please look up its pEC50: CC(C)n1ncc2c(C(=O)Nc3ccc(F)cn3)cc(-c3cccs3)nc21
*A* < 5.00

###

# Tested on: LLC-MK2
# assayInfo: Cytotoxicity against monkey LLC-MK2 cells after 3 to 4 days by crystal violet staining-based spectrophotometric method
# Assay type: cell-based, Macaca mulatta
# settings: rhesus monkey
CC50 vs 40 µM: less than gives Condition met; not less than gives Condition not met.

Some entries whose results are on file:
CC(C)n1ncc2c(C(=O)N3CCc4cc(F)ccc43)cc(-c3cccs3)nc21
Condition not met
CC(C)n1ncc2c(C(=O)Nc3ccccn3)cc(-c3cccs3)nc21
Condition not met
CC(C)n1ncc2c(C(=O)Nc3ccccc3F)cc(-c3cccnc3)nc21
Condition not met
CC(C)n1ncc2c(C(=O)Nc3ncccn3)cc(-c3ccsc3)nc21
Condition not met
CC(C)n1ncc2c(C(=O)Nc3cccc(F)c3)cc(-c3cccs3)nc21
Condition not met

*Q* Hello, I'm reviewing records and need to know if CC50 of CC(C)n1ncc2c(C(=O)Nc3c(F)cccc3F)cc(-c3cccs3)nc21 is below 40 µM. Could you check?
*A* Condition not met

*Q* Just wondering, is CC50 of CC(C)n1ncc2c(C(=O)Nc3ccc(F)c(F)c3)cc(-c3cccs3)nc21 below 40 µM?
*A* Condition not met

*Q* API: query returns whether the compound falls strictly under 40 µM in CC50. Query: CNS(=O)(=O)c1cccc(NC(=O)c2cc(-c3cccs3)nc3c2cnn3C(C)C)c1
*A* Condition met

*Q* Quick check: does CC(C)n1ncc2c(C(=O)Nc3ccc(F)cc3)cc(-c3ccsc3)nc21 have CC50 under 40 µM?
*A* Condition not met

*Q* Take the compound CC(C)n1ncc2c(C(=O)Nc3cccnc3)cc(-c3cccs3)nc21 and say whether its CC50 is less than 40 µM.
*A* Condition not met

*Q* Please indicate whether the reported CC50 of CC(C)n1ncc2c(C(=O)Nc3ccccc3F)cc(-c3ccccn3)nc21 is strictly below 40 µM.
*A* Condition not met

###

# Test system: Coxsackievirus B3
# assayInfo: Antiviral activity against Coxsackievirus B3 infected in human HeLa-RW cells assessed as protection against virus-induced cytopathic effect after 3 to 4 days by crystal violet staining-based spectrophotometric method
# Format: functional, cell-based
# settings: Enterovirus B
Measured pEC50 values are reported for all entries that follow.
Bear in mind: pEC50 is minus log10 of a mol/L concentration; give just that figure.

CC(C)n1ncc2c(C(=O)Nc3cccc(F)c3)cc(-c3cccs3)nc21
6.10

*Q* # query: pEC50 of entry CC(C)n1ncc2c(C(=O)Nc3c(F)cccc3F)cc(-c3cccs3)nc21
*A* 5.49

###

# Tested on: Poliovirus 1
# assayInfo: Antiviral activity against Poliovirus 1 infected in human HeLa-RW cells assessed as protection against virus-induced cytopathic effect after 3 to 4 days by crystal violet staining-based spectrophotometric method
# Format: functional, cell-based
# settings: Enterovirus C
pEC50: −log10 of the molar value.
endpoint: pEC50

See these solved cases before continuing.
CC(C)n1ncc2c(C(=O)Nc3cc(F)cc(F)c3)cc(-c3cccs3)nc21
< 5.00
CC(C)n1ncc2c(C(=N)Nc3ccc(F)cc3)cc(-c3cccs3)nc21
< 5.00
CC(C)n1ncc2c(C(=O)Nc3ccc(C(F)(F)F)cc3)cc(-c3cccs3)nc21
< 4.60

*Q* Find the recorded pEC50 belonging to CC(C)n1ncc2c(C(=O)Nc3ccncn3)cc(-c3ccsc3)nc21 and report it.
*A* < 5.00

*Q* Form field: reported pEC50 of CC(C)n1ncc2c(C(=O)Nc3cccc(F)c3)cc(-c3cccs3)nc21
*A* < 4.60

###

# Test system: LLC-MK2
# assayInfo: Cytotoxicity against monkey LLC-MK2 cells after 3 to 4 days by crystal violet staining-based spectrophotometric method
# Type: cell-based, Macaca mulatta
# settings: rhesus monkey
# CC50 per record follows
Please give a number only; it is taken to be in µM.

Worked cases, answers included:
CC(C)n1ncc2c(C(=O)Nc3ccccc3F)cc(-c3cncs3)nc21
100
CC(C)n1ncc2c(C(=O)Nc3ccccc3F)cc(-c3cccs3)nc21
50
CC(C)n1ncc2c(C(=O)Nc3ccccn3)cc(-c3ccsc3)nc21
25
CC(C)n1ccc2c(C(=O)Nc3cccnc3)cc(-c3cccs3)nc21
25
CC(C)n1ncc2c(C(=O)Nc3cccc(C(N)=O)c3)cc(-c3cccs3)nc21
25

*Q* Find the recorded CC50 belonging to CC(C)n1ncc2c(C(=O)Nc3cncnc3)cc(-c3cccs3)nc21 and report it.
*A* 20

*Q* Could you share which CC50 value was measured for CC(C)n1ncc2c(C(=O)Nc3ccncc3)cc(-c3cccs3)nc21 ?
*A* 6.3
